# System: Candida albicans
# Protocol Notes: Compound was tested for its lowest concentration at which growth of 124N5 strain of Candida albicans was clearly inhibited.
# Assay type: functional
Assay Metric: MIC (µg/mL)
Give bare numbers, in µg/mL.

Some entries whose results are on file:
CC(C)C[C@H](N)C(=O)N[C@H](C(=O)N[C@H](C(=O)O)[C@H]1OC(n2cc(CO)c(=O)[nH]c2=O)[C@H](O)[C@@H]1O)[C@H](O)[C@@H](O)COC(N)=O (stereo not given in full) = 666
CC(C)C[C@H](N)C(=O)N[C@H](C(=O)N[C@H](C(=O)O)[C@H]1OC(n2cc(C=O)nc2O)[C@H](O)[C@@H]1O)[C@H](C)[C@H](O)c1ccc(O)cn1 (stereo not given in full) = 333
C[C@@H]([C@H](N)C(=O)N[C@H](C(=O)O)[C@H]1O[C@@H](n2ccc(=O)[nH]c2=O)[C@H](O)[C@@H]1O)[C@H](O)c1ccc(O)cn1 = 666

# get_value(readout= MIC, system= Candida albicans) for "NC(=O)OC[C@H](O)[C@@H](O)[C@H](N)C(=O)N[C@H](C(=O)O)[C@H]1O[C@@H](n2cc(CO)c(=O)[nH]c2=O)[C@H](O)[C@@H]1O" 166
